- Target system: T1, cynomolgus SEMA4A expressed on expi293 cells (UniProt ID G7NV79) (cynomolgus, UniProt Q9H3S1 33-761 (human entry))
- T1 construct: Transient transfection in expi293 cells; also called cyno SEMA4A
- T1 chain: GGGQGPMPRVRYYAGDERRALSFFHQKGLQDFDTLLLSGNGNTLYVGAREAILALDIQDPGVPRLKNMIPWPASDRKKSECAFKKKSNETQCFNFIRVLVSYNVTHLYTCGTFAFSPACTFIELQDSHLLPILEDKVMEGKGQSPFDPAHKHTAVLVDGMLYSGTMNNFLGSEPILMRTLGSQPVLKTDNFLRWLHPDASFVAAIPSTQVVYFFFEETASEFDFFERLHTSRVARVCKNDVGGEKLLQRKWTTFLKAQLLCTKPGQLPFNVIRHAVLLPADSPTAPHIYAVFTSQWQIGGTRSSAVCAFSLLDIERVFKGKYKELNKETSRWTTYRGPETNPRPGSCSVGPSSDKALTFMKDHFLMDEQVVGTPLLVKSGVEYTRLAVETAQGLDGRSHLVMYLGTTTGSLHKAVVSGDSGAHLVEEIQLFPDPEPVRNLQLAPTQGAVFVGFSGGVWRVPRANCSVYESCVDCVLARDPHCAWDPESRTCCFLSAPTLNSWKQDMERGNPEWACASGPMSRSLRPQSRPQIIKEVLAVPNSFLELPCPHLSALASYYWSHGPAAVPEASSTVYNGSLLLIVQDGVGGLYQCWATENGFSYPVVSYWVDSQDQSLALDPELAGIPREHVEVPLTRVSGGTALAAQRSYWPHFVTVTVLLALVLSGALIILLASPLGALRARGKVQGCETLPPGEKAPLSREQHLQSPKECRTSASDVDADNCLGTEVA
- Test protocol: Mirrorball direct binding, dilution series on expi293 cells transiently transfected with cyno SEMA4A, anti-human Alexa Fluor 647
Experimental endpoint: binding result

1) 5Hg2-5Lg1 human Alya IgG1 (antibody, V domains shown, Humanised 5E3; human IgG1 Alya constant (239iCys, S442C, EU), lambda light chain; purified, unconjugated) VH: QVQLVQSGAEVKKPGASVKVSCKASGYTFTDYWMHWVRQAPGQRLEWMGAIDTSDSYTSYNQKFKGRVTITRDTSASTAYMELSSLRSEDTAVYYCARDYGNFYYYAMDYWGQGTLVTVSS VL: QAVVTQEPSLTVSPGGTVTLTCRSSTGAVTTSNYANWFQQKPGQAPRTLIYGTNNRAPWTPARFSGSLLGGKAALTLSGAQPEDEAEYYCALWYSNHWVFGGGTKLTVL = binds
2) 5Hg2-5Lg2 human Alya IgG1 (antibody, V domains shown, Humanised 5E3; human IgG1 Alya constant (239iCys, S442C, EU), lambda light chain; purified, unconjugated) VH: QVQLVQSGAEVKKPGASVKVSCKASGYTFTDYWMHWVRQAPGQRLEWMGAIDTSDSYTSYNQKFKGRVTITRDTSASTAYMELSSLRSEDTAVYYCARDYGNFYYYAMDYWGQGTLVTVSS VL: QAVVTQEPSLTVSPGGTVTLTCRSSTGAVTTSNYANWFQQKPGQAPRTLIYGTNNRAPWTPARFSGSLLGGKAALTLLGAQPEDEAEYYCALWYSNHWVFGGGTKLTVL = binds
3) 5Hg4-5Lg4 human Alya IgG1 (antibody, V domains shown, Humanised 5E3; human IgG1 Alya constant (239iCys, S442C, EU), lambda light chain; purified, unconjugated) VH: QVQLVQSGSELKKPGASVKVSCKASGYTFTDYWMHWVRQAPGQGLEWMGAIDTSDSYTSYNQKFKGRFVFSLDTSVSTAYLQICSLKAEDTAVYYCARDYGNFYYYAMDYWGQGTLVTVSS VL: QSALTQPPSVSGSPGQSVTISCRSSTGAVTTSNYANWYQQPPGTAPKLMIYGTNNRAPGVPDRFSGSKSGNTASLTISGLQAEDEADYYCALWYSNHWVFGGGTKLTVL = binds
